Listed here: items and their measured Bliss excess.
# Tested on: NCI-H226 (Mesothelioma);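 note: after 72 h of two-drug dosing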
# assayInfo: Bliss excess, mean over the matrix (fraction); higher = more synergy

Completed entries (count: 2):
[
  {
    "molecule": "Cc1cc2ncnn2cc1Nc1ncc2c(n1)n(C1CCOCC1)c(=O)n2C [AZD7648] + CN(C)CCCOc1ccc(-c2ccc3ncc4c(c3c2)n(C2CCOCC2)c(=O)n4C)cn1 [AZD0156] (first compound max 10 µM, 7x7, partner max 1 µM)",
    "experimentalSystem": "NCI-H226 (Mesothelioma)",
    "Bliss excess": -0.0393
  },
  {
    "molecule": "CN(CCO)CC[C@H](CSc1ccccc1)Nc1ccc(S(=O)(=O)NC(=O)c2ccc(N3CCC([C@@H](O)c4ccccc4-c4ccc(Cl)cc4)CC3)cc2)cc1S(=O)(=O)C(F)(F)F [AZD4320] + C1CN(CCC1(C(=O)N[C@@H](CCO)C2=CC=C(C=C2)Cl)N)C3=NC=NC4=C3C=CN4 [Capivasertib] (first compound max 1 µM, 7x7, partner max 3 µM)",
    "experimentalSystem": "NCI-H226 (Mesothelioma)",
    "Bliss excess": -0.0589
  }
]

We next turn to a different molecule, shown below.
# lookup: CN(CCO)CC[C@H](CSc1ccccc1)Nc1ccc(S(=O)(=O)NC(=O)c2ccc(N3CCC([C@@H](O)c4ccccc4-c4ccc(Cl)cc4)CC3)cc2)cc1S(=O)(=O)C(F)(F)F [AZD4320] + C[C@@H](Nc1cc(F)cc(F)c1)c1cc(C(=O)N(C)C)cc2c(=O)cc(N3CCOCC3)oc12 [AZD8186] (first compound max 1 µM, 7x7, partner max 3 µM) on NCI-H226 (Mesothelioma), Bliss excess = -0.015
